test system: HCT15 (colon adenocarcinoma); assay: In vitro cytotoxicity, sulforhodamine B (SRB) method, HCT15; assay type: cell-based; settings: Homo sapiens; HCT-15, SRB method; read-out: cytotoxicity (ED50) HCT-15
assay_readout: IC50 (µg/mL)
Output spec: scalar in µg/mL, unitless text.

Data request: Enter IC50 (test system HCT15 (colon adenocarcinoma)) for `O=C(/C=C/c1ccc(O)cc1)c1ccc(NS(=O)(=O)c2ccccc2)cc1`
Data returned: 47

Data request: Enter IC50 (test system HCT15 (colon adenocarcinoma)) for `O=C(/C=C/c1cccc(O)c1)c1ccccc1NS(=O)(=O)c1cccc(O)c1`
Data returned: 28

Data request: Enter IC50 (test system HCT15 (colon adenocarcinoma)) for `O=C(/C=C/c1ccc(O)cc1O)c1ccc(NS(=O)(=O)c2cccc(O)c2)cc1`
Data returned: 7

Data request: Enter IC50 (test system HCT15 (colon adenocarcinoma)) for `Cc1ccc(S(=O)(=O)Nc2ccc(C(=O)/C=C/c3ccc(O)c(O)c3)cc2)cc1`
Data returned: 7

Data request: Enter IC50 (test system HCT15 (colon adenocarcinoma)) for `O=C(/C=C/c1ccccc1O)c1ccc(OS(=O)(=O)c2cccc(O)c2)cc1`
Data returned: 24

Data request: Enter IC50 (test system HCT15 (colon adenocarcinoma)) for `Cc1ccc(S(=O)(=O)Nc2ccc(C(=O)/C=C/c3cccc(O)c3)cc2)cc1`
Data returned: 37

Data request: Enter IC50 (test system HCT15 (colon adenocarcinoma)) for `O=C(/C=C/c1cccc(O)c1O)c1ccc(NS(=O)(=O)c2cccc(O)c2)cc1`
Data returned: 12

Data request: Enter IC50 (test system HCT15 (colon adenocarcinoma)) for `O=C(/C=C/c1ccc(O)cc1)c1ccc(NS(=O)(=O)c2cccc([N+](=O)[O-])c2)cc1`
Data returned: 54

Data request: Enter IC50 (test system HCT15 (colon adenocarcinoma)) for `Nc1cccc(S(=O)(=O)Nc2ccc(C(=O)/C=C/c3ccc(O)c(O)c3)cc2)c1`
Data returned: 7

Data request: Enter IC50 (test system HCT15 (colon adenocarcinoma)) for `O=C(/C=C/c1ccc(O)cc1)c1ccc(OS(=O)(=O)c2cccc(O)c2)cc1`
Data returned: 19

Data request: Enter IC50 (test system HCT15 (colon adenocarcinoma)) for `O=C(/C=C/c1ccc(O)c(O)c1)c1ccc(NS(=O)(=O)c2ccc(O)cc2)cc1`
Data returned: 7

Data request: Enter IC50 (test system HCT15 (colon adenocarcinoma)) for `Cc1ccc(S(=O)(=O)Nc2ccc(C(=O)/C=C/c3cccc(O)c3O)cc2)cc1`
Data returned: 12

Data request: Enter IC50 (test system HCT15 (colon adenocarcinoma)) for `O=C(/C=C/c1cccc(O)c1O)c1cccc(NS(=O)(=O)c2cccc(O)c2)c1`
Data returned: 9

Data request: Enter IC50 (test system HCT15 (colon adenocarcinoma)) for `O=C(/C=C/c1ccc(O)c(O)c1)c1ccc(OS(=O)(=O)c2ccc(O)cc2)cc1`
Data returned: 6

Data request: Enter IC50 (test system HCT15 (colon adenocarcinoma)) for `Nc1cccc(S(=O)(=O)Nc2ccc(C(=O)/C=C/c3ccc(O)cc3)cc2)c1`
Data returned: 24

Data request: Enter IC50 (test system HCT15 (colon adenocarcinoma)) for `O=C(/C=C/c1ccccc1O)c1ccc(NS(=O)(=O)c2ccc(O)cc2)cc1`
Data returned: 30

Data request: Enter IC50 (test system HCT15 (colon adenocarcinoma)) for `Cc1ccc(S(=O)(=O)Nc2ccccc2C(=O)/C=C/c2ccc(O)cc2)cc1`
Data returned: 42

meta.source: patent US9072698B2
